Overview of recorded Ka for various binders
# tested_system: T1, recombinant conformational HCV E2 antigen (HCV genotype 1a) (hepatitis C virus, HCV1 (genotype 1a), UniProt P26664 383-715)
# T1 construct: range 383-715; also called CHO E2; E2 1a
# T1 sequence (P26664 383-715): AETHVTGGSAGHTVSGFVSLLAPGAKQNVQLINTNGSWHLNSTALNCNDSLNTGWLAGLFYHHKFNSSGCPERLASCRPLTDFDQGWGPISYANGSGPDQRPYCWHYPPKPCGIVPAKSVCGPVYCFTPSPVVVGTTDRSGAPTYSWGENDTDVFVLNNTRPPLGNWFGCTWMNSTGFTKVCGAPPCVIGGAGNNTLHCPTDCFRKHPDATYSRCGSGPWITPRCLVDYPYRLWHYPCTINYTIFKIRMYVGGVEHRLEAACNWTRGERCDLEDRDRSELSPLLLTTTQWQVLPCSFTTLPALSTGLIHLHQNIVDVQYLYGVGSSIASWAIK
# assay_procedure: inhibition ELISA: coated E2 1a, soluble E2 as inhibitor

binder: Fab molecule clone L3 (Fab, V domains shown) VH: EVQLLESGGGVVQPGRSLRLSCAASGFTFKTYGMHWVRQAPGKGLEWVAGISFDGSNQYYADSVKGRFIVSRDNSRDTVFLQMSSLRLEDTAVYYCATEGSPFGSIKGRYYLENWGQGTLVTVSS VL: AELTQSPATLSVSPGERASLSCRASQSVGNNLAWYQQKPGQAPRLLIYGGNTRATGTPDRFSGSGSGTEFTLTISSLQSEDFAVYFCQHYSTWPLTFGGGTKVEFK
Ka: ~4e+07 M⁻¹
//
binder: Fab molecule clone 1:5 (Fab, V domains shown) VH: VQLLEQSGAEVRKPGSSVKVSCKASGGTFSGHVITWVRQAPGQGLEWMGESIPIFGSANYAQNYAQKFRDRVSIIADESTSTSFIELSNLRSDDTAVYYCARDPPRYCSAGRCYPGFFQQWGQGTLVTVSS VL: AELTQSPGTLSLSPGERATLSCRASQSVSSNYLAWYQQRPGQAPRLLIYGASSRATGIPDRFSGSGSGTDFTLTISRLEPEDFAVYYCQLYGNSRWTFGQGTKVEIK
Ka: < 1e+07 M⁻¹

meta.source: patent US6747136
